assay: adipocyte viability effects, profiling panel, cell-based, 3T3-L1 adipocytes, calcein-AM fluorescence, 48 h, basal (AID 1163); details: 3T3-L1 adipocytes viability, higher = more signal; note: test concentration not given here
ASSAY_ENDPOINT: z-score

>  <LINE_NOTATION>
C=C(COC)C(=O)CC[C@@H](OC(=O)c1ccccc1-c1ccccc1C(=O)O)c1ccccc1OCCO

>  <ASSAY_ENDPOINT>
z-score

>  <READOUT_NUMBER>
0.615

$$$$
>  <LINE_NOTATION>
CCCCC(=C=CC[C@H](O)c1ccccc1OCCO)CCO

>  <ASSAY_ENDPOINT>
z-score

>  <READOUT_NUMBER>
-0.358

$$$$
>  <LINE_NOTATION>
COC(=O)C(CC#Cc1ccc2c(c1)[C@]1(C(=O)N2)[C@H](C(=O)NC[C@H](O)c2ccccc2)[C@H]2C(=O)O[C@H](c3ccccc3)[C@H](c3ccccc3)N2[C@@H]1c1ccc(O)cc1)C(=O)OC

>  <ASSAY_ENDPOINT>
z-score

>  <READOUT_NUMBER>
-1.56

$$$$
>  <LINE_NOTATION>
C[C@]1(C(=O)NC2CC2)c2ccccc2C(=O)N(Cc2cc(F)cc(C(F)(F)F)c2)[C@H]1c1ccc(CO)cc1

>  <ASSAY_ENDPOINT>
z-score

>  <READOUT_NUMBER>
0.274

$$$$

====

system: Human papillomavirus type 1a E7 protein (residues 1-88); test: HPV1a E7 small-molecule binders, primary screen, biochemical, small-molecule microarray, residues 1-88, 635 nm (AID 1129); conditions: small-molecule microarray binding, fluorescence 635 nm; higher = more signal

>  <MOLECULE>
COC(=O)C1=CC(c2ccc(CO)cc2)=CC(C2CC2)N(Cc2cc3c(cc2Br)OCO3)C=C1C(=O)OC (stereo unspecified)

>  <SYSTEM>
Human papillomavirus type 1a E7 protein (residues 1-88)

>  <composite z-score>
1.19

$$$$
>  <MOLECULE>
COc1ccc(CCNC(=O)[C@@H]2c3ccccc3C(=O)N(Cc3cc(F)cc(C(F)(F)F)c3)[C@H]2c2ccc(CO)cc2)cc1

>  <SYSTEM>
Human papillomavirus type 1a E7 protein (residues 1-88)

>  <composite z-score>
0.544

$$$$
>  <MOLECULE>
O=C1C2C=CC(C(O)c3ccccn3)N(Nc3ccc([N+](=O)[O-])cc3)C2C(=O)N1c1ccccc1 (stereo unspecified)

>  <SYSTEM>
Human papillomavirus type 1a E7 protein (residues 1-88)

>  <composite z-score>
1.16

$$$$
>  <MOLECULE>
COC(=O)C(CC#Cc1ccc2c(c1)[C@]1(C(=O)N2)[C@H](C(=O)NC[C@H](O)c2ccccc2)[C@H]2C(=O)O[C@H](c3ccccc3)[C@H](c3ccccc3)N2[C@@H]1c1ccc(O)cc1)C(=O)OC

>  <SYSTEM>
Human papillomavirus type 1a E7 protein (residues 1-88)

>  <composite z-score>
-0.0341

$$$$
>  <MOLECULE>
COC(=O)[C@@]1(Cc2ccc(F)cc2)[C@H]2c3cc(C(=O)N(C)C)n(CCF)c3C[C@H]2CN1C(=O)c1ccccc1

>  <SYSTEM>
Human papillomavirus type 1a E7 protein (residues 1-88)

>  <composite z-score>
0.911

$$$$
>  <MOLECULE>
C[C@]12C(=O)N(CCO)[C@@H]3C(=O)N(c4ccc(Cl)cc4)CC=CC31O[C@@H]1/C=C\CCCOC(=O)C12 (stereo partly specified)

>  <SYSTEM>
Human papillomavirus type 1a E7 protein (residues 1-88)

>  <composite z-score>
-0.639

$$$$
>  <MOLECULE>
COC(=O)[C@@]1(Cc2ccc(F)cc2)[C@H]2c3cc(C(=O)N(C)C)n(Cc4cccc5ccccc45)c3C[C@H]2CN1C(=O)c1ccccc1

>  <SYSTEM>
Human papillomavirus type 1a E7 protein (residues 1-88)

>  <composite z-score>
1.11

$$$$
>  <MOLECULE>
CC(C)Cc1ccc(CN2CC[C@@H](NC(=O)c3ccccc3)C2)cc1

>  <SYSTEM>
Human papillomavirus type 1a E7 protein (residues 1-88)

>  <composite z-score>
-1.55

$$$$
>  <MOLECULE>
[N-]=[N+]=NCc1ccccc1C[C@@]1(C(=O)NCCN2CCOCC2)N=C(c2ccc(OCCCO)cc2)O[C@@H]1c1ccccc1

>  <SYSTEM>
Human papillomavirus type 1a E7 protein (residues 1-88)

>  <composite z-score>
1.18

$$$$
>  <MOLECULE>
C[C@]1(C(=O)O)c2ccccc2C(=O)N(Cc2cc(C(F)(F)F)cc(C(F)(F)F)c2)[C@H]1c1ccc(CO)cc1

>  <SYSTEM>
Human papillomavirus type 1a E7 protein (residues 1-88)

>  <composite z-score>
-0.129

$$$$
>  <MOLECULE>
CCCCN1CC=CC23O[C@@H]4/C=C\CCC(C)OC(=O)C4[C@H]2C(=O)N(CCO)[C@@H]3C1=O (stereo partly specified)

>  <SYSTEM>
Human papillomavirus type 1a E7 protein (residues 1-88)

>  <composite z-score>
-0.424

$$$$
>  <MOLECULE>
COCCOC(=O)N1C(=O)[C@@]2(c3ccccc31)[C@H](C(=O)Nc1nc3ccccc3s1)[C@H]1C(=O)O[C@H](c3ccccc3)[C@H](c3ccccc3)N1[C@@H]2c1ccccc1OCCO

>  <SYSTEM>
Human papillomavirus type 1a E7 protein (residues 1-88)

>  <composite z-score>
1.19

$$$$
>  <MOLECULE>
Cc1ccc(S[C@]2(C(=O)NC(C)C)CC(=O)N(Cc3ccccc3)[C@@H]2c2ccc(CO)cc2)cc1

>  <SYSTEM>
Human papillomavirus type 1a E7 protein (residues 1-88)

>  <composite z-score>
-0.161

$$$$
>  <MOLECULE>
COC(=O)[C@@]1(Cc2ccc(F)cc2)[C@H]2c3cc(C(=O)N4CCCC4)n(C[C@H](O)CO)c3C[C@H]2CN1C(=O)c1ccccc1

>  <SYSTEM>
Human papillomavirus type 1a E7 protein (residues 1-88)

>  <composite z-score>
1.09

$$$$
>  <MOLECULE>
COCCCNC(=O)[C@@]1(Cc2ccccc2I)c2ccccc2C(=O)N(Cc2ccccc2C(F)(F)F)[C@H]1c1ccc(CO)cc1

>  <SYSTEM>
Human papillomavirus type 1a E7 protein (residues 1-88)

>  <composite z-score>
0.742

$$$$
>  <MOLECULE>
CC(C)N1C(=O)[C@@]2(Cc3ccccc31)c1ccccc1C(=O)N(Cc1ccccc1)[C@H]2c1ccc(CO)cc1

>  <SYSTEM>
Human papillomavirus type 1a E7 protein (residues 1-88)

>  <composite z-score>
-0.299

$$$$
